Origin of the recorded values: patent US4767764A

Quick reference: ED50 of the listed items.
- Experimental Target: kappa opioid receptor (U-50,488H analgesia) (Mus musculus, UniProt P33534)
- Construct: Male CF1 mice (fasted 17-21 hours); from tissue; host or cells: live male CF1 mice (in vivo, whole animal; endogenous receptor)
- Sequence (P33534 whole entry): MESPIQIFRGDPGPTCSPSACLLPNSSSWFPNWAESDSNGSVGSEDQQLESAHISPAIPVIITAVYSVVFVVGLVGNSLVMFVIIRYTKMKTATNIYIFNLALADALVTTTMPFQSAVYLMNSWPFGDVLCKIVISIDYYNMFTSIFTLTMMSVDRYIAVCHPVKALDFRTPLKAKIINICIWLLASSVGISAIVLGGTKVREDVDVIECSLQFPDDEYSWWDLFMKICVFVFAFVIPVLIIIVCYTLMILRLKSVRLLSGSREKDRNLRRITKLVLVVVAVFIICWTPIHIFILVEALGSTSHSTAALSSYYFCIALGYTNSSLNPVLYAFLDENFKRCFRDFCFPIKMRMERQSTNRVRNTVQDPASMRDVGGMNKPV
- Assay Details: in vivo
- Design: species or system mouse (male CF1)
- Cond: sc, read-out: ED50, antagonism of U-50,488H analgesia in PQW test (kappa antagonist potency)

Record CCCOCC1CC2C=CC13CN(CCC)CCC31c3cccc(O)c3OC21 (centres unmarked) [Example 4] : what is its ED50 with kappa opioid receptor (U-50,488H analgesia) (Mus musculus, UniProt P33534)? 0.05 mg/kg

Record CCCOCC1CC2CCC13CN(CCC)CCC31c3cccc(O)c3OC21 (centres unmarked) [Example 3] : what is its ED50 with kappa opioid receptor (U-50,488H analgesia) (Mus musculus, UniProt P33534)? 0.025 mg/kg

Record Oc1cccc2c1OC1C3CCC4(CN(CC5CC5)CCC214)C(COCCCc1ccccc1)C3 (centres unmarked) [Example 7] : what is its ED50 with kappa opioid receptor (U-50,488H analgesia) (Mus musculus, UniProt P33534)? 0.24 mg/kg

Record CCCN1CCC23c4cccc(O)c4OC2C2CCC3(C1)C(COC)C2 (centres unmarked) [Example 1] : what is its ED50 with kappa opioid receptor (U-50,488H analgesia) (Mus musculus, UniProt P33534)? 0.004 mg/kg

Record CCCN1CCC23c4cccc(O)c4OC2C2CCC3(C1)C(COCC)C2 (centres unmarked) [Example 2] : what is its ED50 with kappa opioid receptor (U-50,488H analgesia) (Mus musculus, UniProt P33534)? 0.012 mg/kg

Record CCCN1CCC23c4cccc(O)c4OC2C2CCC3(C1)C(CSC)C2 (centres unmarked) [Example 5] : what is its ED50 with kappa opioid receptor (U-50,488H analgesia) (Mus musculus, UniProt P33534)? 0.063 mg/kg

Record CCC1C2Cc3ccc(O)cc3C1(CC)CCN2Cc1ccoc1 (centres unmarked) [MR 2266, reference compound] : what is its ED50 with kappa opioid receptor (U-50,488H analgesia) (Mus musculus, UniProt P33534)? 0.115 mg/kg

Record COCC1CC2CCC13CN(CC1CC1)CCC31c3cccc(O)c3OC21 (centres unmarked) [Example 6] : what is its ED50 with kappa opioid receptor (U-50,488H analgesia) (Mus musculus, UniProt P33534)? 0.007 mg/kg

---

- Experimental Target: mu opioid receptor (morphine analgesia) (Mus musculus)
- Construct: Male CF1 mice (fasted 17-21 hours); from tissue; host or cells: live male CF1 mice (in vivo, whole animal; endogenous receptor)
- Sequence (P42866 whole entry): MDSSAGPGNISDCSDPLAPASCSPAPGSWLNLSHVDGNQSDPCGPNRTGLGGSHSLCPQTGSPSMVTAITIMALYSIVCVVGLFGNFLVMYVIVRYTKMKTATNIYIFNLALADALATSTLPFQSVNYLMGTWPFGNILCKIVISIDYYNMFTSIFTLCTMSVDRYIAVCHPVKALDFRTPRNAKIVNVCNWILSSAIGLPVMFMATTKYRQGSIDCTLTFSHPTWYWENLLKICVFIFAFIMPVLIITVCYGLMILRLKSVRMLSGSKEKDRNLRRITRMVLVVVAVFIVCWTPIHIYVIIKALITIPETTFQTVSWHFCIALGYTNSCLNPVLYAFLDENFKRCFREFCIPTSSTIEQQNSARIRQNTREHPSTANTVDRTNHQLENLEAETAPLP
- Assay Details: antagonism of morphine analgesia in PQW test (mu antagonist potency)
- Format: in vivo, mouse (male CF1)
- Cond: sc, read-out: ED50, antagonism of morphine analgesia in PQW test (mu antagonist potency)
Rule: measured ED50 below 0.1 mg/kg gets condition met; anything equal to or greater than 0.1 mg/kg gets condition not met.

| Compound | Experimental Target | Label Class |
| --- | --- | --- |
| Oc1cccc2c1OC1C3CCC4(CN(CC5CC5)CCC214)C(COCCCc1ccccc1)C3 (centres unmarked) | mu opioid receptor (morphine analgesia) (Mus musculus) | condition not met |
| COCC1CC2CCC13CN(CC1CC1)CCC31c3cccc(O)c3OC21 (centres unmarked) | mu opioid receptor (morphine analgesia) (Mus musculus) | condition met |

Please indicate whether the reported ED50 of CCCOCC1CC2C=CC13CN(CCC)CCC31c3cccc(O)c3OC21 (centres unmarked) is strictly below 0.1 mg/kg. condition not met

Please indicate whether the reported ED50 of CCCN1CCC23c4cccc(O)c4OC2C2CCC3(C1)C(COC)C2 (centres unmarked) is strictly below 0.1 mg/kg. condition met

Please indicate whether the reported ED50 of CCCN1CCC23c4cccc(O)c4OC2C2CCC3(C1)C(COCC)C2 (centres unmarked) is strictly below 0.1 mg/kg. condition met

Please indicate whether the reported ED50 of CCC1C2Cc3ccc(O)cc3C1(CC)CCN2Cc1ccoc1 (centres unmarked) [MR 2266, reference compound] is strictly below 0.1 mg/kg. condition not met

Please indicate whether the reported ED50 of CCCOCC1CC2CCC13CN(CCC)CCC31c3cccc(O)c3OC21 (centres unmarked) is strictly below 0.1 mg/kg. condition met
